The following binders are listed with their measured Kd values.
systemUnderTest: proliferating cell nuclear antigen (PCNA) (UniProt P12004 1-261)
Sequence (P12004 whole entry): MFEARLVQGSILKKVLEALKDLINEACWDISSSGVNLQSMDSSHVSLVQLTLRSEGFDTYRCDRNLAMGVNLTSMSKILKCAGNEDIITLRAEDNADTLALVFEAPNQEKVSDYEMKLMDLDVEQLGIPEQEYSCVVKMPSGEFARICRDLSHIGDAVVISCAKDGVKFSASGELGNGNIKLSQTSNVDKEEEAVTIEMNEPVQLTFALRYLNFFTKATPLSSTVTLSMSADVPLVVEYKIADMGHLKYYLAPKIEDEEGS
protocolNotes: ITC
measure: Kd

1. Ac-KRKKQTSMTDFYHSRKK-NH2 [p21_(SWAP) peptide] :: 0.547 µM
2. Ac-RRRRQTSMTDFYHSRRR-NH2 [p21_(All–R) peptide] :: 0.398 µM
3. Ac-RKRRQTSMTDFYHSKRR-NH2 [p21_(140–156) peptide (wild-type p21 PIP-degron with flanking regions)] :: 0.606 µM
4. Ac-KKKKQTSMTDFYHSKKK-NH2 [p21_(All–K) peptide] :: 0.653 µM
